# Tested on: ATP;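 note: ATP exposure 15 min at 22 °C before imaging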
# experiment_description: switch fluorescence ratio, 500 uM ATP over buffer (Cy3 cluster intensity, sum of 5 cycles each) (fold (ratio)); higher = stronger signal-on switching upon ATP binding; sequences stand for … in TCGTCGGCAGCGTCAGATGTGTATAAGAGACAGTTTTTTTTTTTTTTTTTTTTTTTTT…TC
# cond: aptamer strand: ATP DNA aptamer (quencher-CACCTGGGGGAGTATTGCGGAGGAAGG + anchor), 100 nM annealed; ATP concentration: 500 uM
measured_endpoint: switch fluorescence ratio
Number, no unit, nothing else.

Here is how some sequences turned out for switch fluorescence ratio.
monomer_sequence | meas_value
TGGGTATATT | 0.987
TTCGTTACAG | 0.998
TACGTTGCAA | 1.22
AACGTGGCGA | 1.03
TATGGGGGA | 1.01

Now let's try a different one.
Req: Value lookup for switch fluorescence ratio; key = TTACGGATAA
Resp: 1.49

* * *

# Tested on: ATP;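 note: ATP exposure 15 min at 22 °C before imaging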
# experiment_description: switch fluorescence ratio, 500 uM ATP over buffer (Cy3 cluster intensity, sum of 5 cycles each) (fold (ratio)); higher = stronger signal-on switching upon ATP binding; sequences stand for … in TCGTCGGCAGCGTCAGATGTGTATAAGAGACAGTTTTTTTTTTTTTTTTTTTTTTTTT…TC
# cond: aptamer strand: ATP DNA aptamer (quencher-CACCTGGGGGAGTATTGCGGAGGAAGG + anchor), 100 nM annealed; ATP concentration: 500 uM
measured_endpoint: switch fluorescence ratio
Number, no unit, nothing else.

Here is how some sequences turned out for switch fluorescence ratio.
monomer_sequence | measured_endpoint | meas_value
GGTTTGGTTA | switch fluorescence ratio | 1
AGTTAAAACG | switch fluorescence ratio | 1.02
AAGGGGCACT | switch fluorescence ratio | 1.02
TGGGAGTACT | switch fluorescence ratio | 1.01
GTGATAATGG | switch fluorescence ratio | 1.04
CGGACTAGCG | switch fluorescence ratio | 0.944

Req: Value lookup for switch fluorescence ratio; key = TTTTTTGACT
Resp: 0.995

Req: Value lookup for switch fluorescence ratio; key = GCTCTGGGGA
Resp: 1.07

Req: Value lookup for switch fluorescence ratio; key = GCCACGGGGA
Resp: 1.01

Req: Value lookup for switch fluorescence ratio; key = CAGGAATAGG
Resp: 1.03

Req: Value lookup for switch fluorescence ratio; key = GGGCTGTGGG
Resp: 1.01

Req: Value lookup for switch fluorescence ratio; key = GTTGTCAGGG
Resp: 0.982

Req: Value lookup for switch fluorescence ratio; key = CTGTATATTT
Resp: 0.959

Req: Value lookup for switch fluorescence ratio; key = AGGGGTGGTC
Resp: 1.04

* * *

# switch fluorescence ratio listing for each entry below
# Tested on: ATP;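 note: ATP exposure 15 min at 22 °C before imaging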
# experiment_description: switch fluorescence ratio, 500 uM ATP over buffer (Cy3 cluster intensity, sum of 5 cycles each) (fold (ratio)); higher = stronger signal-on switching upon ATP binding; sequences stand for … in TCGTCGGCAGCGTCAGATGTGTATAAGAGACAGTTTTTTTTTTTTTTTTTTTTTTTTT…TC
# cond: aptamer strand: ATP DNA aptamer (quencher-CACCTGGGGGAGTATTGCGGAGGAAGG + anchor), 100 nM annealed; ATP concentration: 500 uM
Number, no unit, nothing else.

Here is how some sequences turned out for switch fluorescence ratio.
monomer_sequence | measured_endpoint | meas_value
CAATCATGTT | switch fluorescence ratio | 1.02
TAACAAATAG | switch fluorescence ratio | 0.974
ATGTCCAGGG | switch fluorescence ratio | 1.21
GGCGGGGACG | switch fluorescence ratio | 0.999
ACGATCAGCA | switch fluorescence ratio | 1.05
CCGGGTGGTA | switch fluorescence ratio | 1.17
TCCAGCGCAC | switch fluorescence ratio | 3.81
ACGGTTGGTG | switch fluorescence ratio | 1.01
TGATGGTGC | switch fluorescence ratio | 1.05
CACATGGTGT | switch fluorescence ratio | 1.15

Req: Value lookup for switch fluorescence ratio; key = TAATGTTTGC
Resp: 1.01

Req: Value lookup for switch fluorescence ratio; key = GACTGGGGCA
Resp: 1.02

Req: Value lookup for switch fluorescence ratio; key = CTGTCGACTT
Resp: 0.986

Req: Value lookup for switch fluorescence ratio; key = GGCTTCCCTG
Resp: 1.19

Req: Value lookup for switch fluorescence ratio; key = CGTCTGTCTC
Resp: 1.05

Req: Value lookup for switch fluorescence ratio; key = GTTGAATCTT
Resp: 0.995

Req: Value lookup for switch fluorescence ratio; key = TGATGCAAGA
Resp: 1.3

Req: Value lookup for switch fluorescence ratio; key = TGTTGTAGGA
Resp: 0.997

Req: Value lookup for switch fluorescence ratio; key = CACCGGGGTG
Resp: 0.995

Req: Value lookup for switch fluorescence ratio; key = TATTTTGTGG
Resp: 0.984

Req: Value lookup for switch fluorescence ratio; key = GTTATTTAGA
Resp: 1.03

Req: Value lookup for switch fluorescence ratio; key = ACTTGATTGT
Resp: 1.02

* * *

# Tested on: ATP;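 note: ATP exposure 15 min at 22 °C before imaging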
# experiment_description: switch fluorescence ratio, 500 uM ATP over buffer (Cy3 cluster intensity, sum of 5 cycles each) (fold (ratio)); higher = stronger signal-on switching upon ATP binding; sequences stand for … in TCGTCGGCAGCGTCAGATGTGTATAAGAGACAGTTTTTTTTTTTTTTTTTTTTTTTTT…TC
# cond: aptamer strand: ATP DNA aptamer (quencher-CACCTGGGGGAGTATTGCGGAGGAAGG + anchor), 100 nM annealed; ATP concentration: 500 uM
measured_endpoint: switch fluorescence ratio
Number, no unit, nothing else.

Here is how some sequences turned out for switch fluorescence ratio.
monomer_sequence | meas_value
GCAAATGATG | 1.01
CATTGCTTTT | 0.991
AAGGGTTTGA | 1.03
TTTTAAGGCT | 0.982
TGCCGACGGG | 1.01

Req: Value lookup for switch fluorescence ratio; key = AGGAAGGGGA
Resp: 0.968

Req: Value lookup for switch fluorescence ratio; key = GGGTATACGG
Resp: 0.982

Req: Value lookup for switch fluorescence ratio; key = GTTTCAGGGG
Resp: 1.09

Req: Value lookup for switch fluorescence ratio; key = TAGGGTGGGG
Resp: 0.99

Req: Value lookup for switch fluorescence ratio; key = AAAAATGTTA
Resp: 1.01

Req: Value lookup for switch fluorescence ratio; key = ACAGGGGAGT
Resp: 1.03

Req: Value lookup for switch fluorescence ratio; key = GATAGCGGGA
Resp: 0.97

Req: Value lookup for switch fluorescence ratio; key = CGGGGATGCA
Resp: 1.03

Req: Value lookup for switch fluorescence ratio; key = TGGACGCGCT
Resp: 1.01

Req: Value lookup for switch fluorescence ratio; key = TCAATCTCCT
Resp: 1.03

Req: Value lookup for switch fluorescence ratio; key = GGTTCTTCGG
Resp: 0.994

Req: Value lookup for switch fluorescence ratio; key = TTTTAAACAT
Resp: 1.11

Req: Value lookup for switch fluorescence ratio; key = GCGGGAAGCT
Resp: 1.05

Req: Value lookup for switch fluorescence ratio; key = GGCTTAAGGT
Resp: 1.02

Req: Value lookup for switch fluorescence ratio; key = TTACGGTTGG
Resp: 0.995

* * *

# switch fluorescence ratio listing for each entry below
# Test system: ATP;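 note: ATP exposure 15 min at 22 °C before imaging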
# experiment_description: switch fluorescence ratio, 500 uM ATP over buffer (Cy3 cluster intensity, sum of 5 cycles each) (fold (ratio)); higher = stronger signal-on switching upon ATP binding; sequences stand for … in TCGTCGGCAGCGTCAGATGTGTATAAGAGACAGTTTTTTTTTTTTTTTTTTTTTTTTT…TC
# cond: aptamer strand: ATP DNA aptamer (quencher-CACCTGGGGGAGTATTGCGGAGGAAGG + anchor), 100 nM annealed; ATP concentration: 500 uM
Number, no unit, nothing else.

Here is how some sequences turned out for switch fluorescence ratio.
monomer_sequence | target_or_system | switch fluorescence ratio
CGTTTACCTT | ATP | 1.01
AAGGCGGGGT | ATP | 0.997

Req: Value lookup for switch fluorescence ratio; key = ATAGTACGCG
Resp: 0.992

Req: Value lookup for switch fluorescence ratio; key = TTTTTAGTAG
Resp: 1.01

Req: Value lookup for switch fluorescence ratio; key = GAATGGGTTG
Resp: 1.01

Req: Value lookup for switch fluorescence ratio; key = CTATCTTCGG
Resp: 0.974

Req: Value lookup for switch fluorescence ratio; key = CATTATCACG
Resp: 1.07

Req: Value lookup for switch fluorescence ratio; key = TGGGTATACG
Resp: 1.01

* * *

# switch fluorescence ratio listing for each entry below
# System: ATP;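 note: ATP exposure 15 min at 22 °C before imaging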
# experiment_description: switch fluorescence ratio, 500 uM ATP over buffer (Cy3 cluster intensity, sum of 5 cycles each) (fold (ratio)); higher = stronger signal-on switching upon ATP binding; sequences stand for … in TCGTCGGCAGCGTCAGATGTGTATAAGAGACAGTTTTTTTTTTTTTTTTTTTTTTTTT…TC
# cond: aptamer strand: ATP DNA aptamer (quencher-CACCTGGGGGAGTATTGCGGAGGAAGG + anchor), 100 nM annealed; ATP concentration: 500 uM
Number, no unit, nothing else.

Here is how some sequences turned out for switch fluorescence ratio.
monomer_sequence | meas_value
GGGGTAGCAT | 0.986
GGGGGAACCT | 1.05
GAGCGAGGAA | 0.982
AATTCGGGGG | 1.04
TTTTAGGTAA | 0.975

Req: Value lookup for switch fluorescence ratio; key = TTAGTATTTA
Resp: 1.01
